Assay: Phase I study CXR1002-001: plasma pharmacokinetics (LC-MS/MS)
Format: in vivo, human
Conditions: human, plasma, po, 1000 mg, Patient 042, 1000 mg weekly oral dose, Time 842 hr; read-out: Concentration (plasma level)
experimental.endpoint: concentration at 842 hr (µM)
Your answer should be a plain number; it is taken to be in µM.

# input Name the recorded concentration at 842 hr for O=C(O)C(F)(F)C(F)(F)C(F)(F)C(F)(F)C(F)(F)C(F)(F)C(F)(F)F .
# output 1140

====

Assay: Phase I study CXR1002-001: plasma pharmacokinetics (LC-MS/MS)
Format: in vivo, human
Conditions: human, plasma, oral, 50 mg, Patient 003 Dose 50 mg; 24 hr; read-out: Concentration
From the text: PK samples, PD (fasting) samples, blood glucose, and blood triglyceride samples, were taken over a 6-week period. Dose limiting toxicity (DLT) will be based on the toxicity assessments over the first 3-week period of the repeat dosing schedule. […]
experimental.endpoint: concentration at 24 h (µM)
# unit: µM | format: bare number

# input Entry O=C(O)C(F)(F)C(F)(F)C(F)(F)C(F)(F)C(F)(F)C(F)(F)C(F)(F)F [CXR1002] : reported concentration at 24 h = ?
# output 19.5
